- Protocol details: VP16 counterscreen qHTS for inhibitors of ROR gamma transcriptional activity;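 further: Gal4-VP16 expression switched on by copper sulfate through the metallothionein promoter; nearly all actives have a fitted effect of over 50% in size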; further: potency means the concentration at half of the fitted maximal effect
- Condition description: Drosophila S2 Gal4-VP16 UAS-luciferase, luminescence, 20 h; series mostly up to 53.6 µM
Among all 310,000 compounds or so, about 11,000 (3.5%) were called active. Inconclusive results (about 8%) are left out. The entries come from a sample that favours actives as a whole.
Measurement type: Potency

Compound | Measured result
CCOC(=O)c1ccc(N2C(=O)CC(N(C)Cc3ccccc3)C2=O)cc1 (centres undefined) | inactive
COc1ccc(N(C(=O)c2snc(C(N)=O)c2N)C(C(=O)NC2CCCC2)c2ccc(C)o2)c(OC)c1 (centres undefined) | inactive
CCOCCCn1c(SCC(=O)Nc2cc(OC)ccc2OC)nc2ccccc2c1=O | inactive
C/C(=N\NC(=O)c1ccc(C)cc1)C1C(=O)c2ccccc2C1=O | 0.562 µM (active)
COc1ccccc1NC(=O)CSc1nc2sc3c(c2c(=O)n1-c1ccccc1)CCN(C)C3 | inactive
O=C(Nc1ccc(C(=O)N2CCCCC2)cc1)c1cccc([N+](=O)[O-])c1 | inactive
C/C=C/C=N/NC(=O)c1ccncc1 | inactive
CCOC(=O)C1(Cc2cccc(OC)c2)CCCN(C(=O)CCSC)C1 (centres undefined) | inactive

(Q) Give the measured Potency of O=C(Nc1ccncc1)Nc1ccc(F)cc1 .
(A) inactive

(Q) Give the measured Potency of O=C(N/N=C/c1ccc(OC(=O)c2ccccc2Cl)cc1)c1ccc(O)cc1 .
(A) inactive
